experimental.context: 315.15 K; 101.33 kPa; Liquid; Vibrating tube method
± gives the expanded uncertainty stated by the source.
result.type: mass density
Give the value; after it, write the unit.

# input Which mass density value belongs to `CCCCC[n+]1ccn(CCCC)c1.O=S(=O)([N-]S(=O)(=O)C(F)(F)F)C(F)(F)F` ?
# output 1302.3 ± 9.2 kg/m3

# input Field request: mass density | item: `CCCC[n+]1ccn(C2CCCC2)c1.O=S(=O)([N-]S(=O)(=O)C(F)(F)F)C(F)(F)F`
# output 1359.3 ± 10 kg/m3

# input GET /values?readout=mass density&item= `CCCCn1cc[n+](CCC(C)C)c1.O=S(=O)([N-]S(=O)(=O)C(F)(F)F)C(F)(F)F`
# output 1303.1 ± 9.3 kg/m3

# input Could you tell me which mass density is on file for `CCCCn1cc[n+](C(CC)CC)c1.O=S(=O)([N-]S(=O)(=O)C(F)(F)F)C(F)(F)F` ?
# output 1304.4 ± 9.3 kg/m3
